- ASSAYED SYSTEM: T1, mouse serum albumin (mouse, UniProt P07724 25-608)
- T1 construct: also called MSA; MuSA
- T1 sequence (P07724 25-608 limits assumed): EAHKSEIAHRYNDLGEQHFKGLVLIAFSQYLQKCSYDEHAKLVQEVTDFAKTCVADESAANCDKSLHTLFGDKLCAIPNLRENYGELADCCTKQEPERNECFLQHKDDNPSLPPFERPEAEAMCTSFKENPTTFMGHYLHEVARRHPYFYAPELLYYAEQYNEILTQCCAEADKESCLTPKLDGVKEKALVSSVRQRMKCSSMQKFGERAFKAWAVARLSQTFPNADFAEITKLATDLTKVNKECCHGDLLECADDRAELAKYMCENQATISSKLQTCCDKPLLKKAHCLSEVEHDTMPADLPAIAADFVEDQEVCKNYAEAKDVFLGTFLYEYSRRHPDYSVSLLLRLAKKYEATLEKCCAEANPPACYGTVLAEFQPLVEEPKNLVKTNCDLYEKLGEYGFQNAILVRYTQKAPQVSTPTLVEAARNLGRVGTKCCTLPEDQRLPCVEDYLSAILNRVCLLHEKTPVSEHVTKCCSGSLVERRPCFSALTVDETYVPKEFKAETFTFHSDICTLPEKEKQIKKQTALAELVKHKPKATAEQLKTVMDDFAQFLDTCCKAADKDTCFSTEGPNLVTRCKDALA
- METHOD: direct binding ELISA, albumin coated
EXPERIMENTAL ENDPOINT: EC50 (nM)
Output spec: scalar in nM, unitless text.

Below, 6 binders whose answers are already recorded.
[
  {
    "BINDER": "PKE2 Adnectin 2629_E06 (designed binder, 10Fn3 domain with modified CD loop; the entry includes the His6 tail; also called ADX_2629_E06) MGVSDVPRDLEVVAATPTSLLISWDAPAVTVRYYRITYGREVQKYSDLGPLYIYQEFTVPGSKSTATISGLKPGVDYTITVYAVTGSGESPASSKPISINYRTEIDKPSQHHHHHH",
    "RECORDED MEASUREMENT": 2.8
  },
  {
    "BINDER": "PCSK9-PKE2 tandem 4472_F04 (designed binder, The real molecule is ONE polypeptide: PCSK9 domain, undisclosed linker D, PKE2 domain. It is given here as two chains because the linker letters are unknown., not shown: The inter-domain linker) PCSK9 domain: MGVSDVPRDLEVVAATPTSLLISWDAPAEGYGYYRITYGETGGNSPVQEFTVPVSKGTATISGLKPGVDYTITVYAVEFDFPGAGYYHRPISINYRTE PKE2 domain: GVSDVPRDLEVVAATPTSLLISWDAPAVTVRYYRITYGREVQKYSDLGPLYIYQEFTVPGSKSTATISGLKPGVDYTITVYAVTGSGESPASSKPISINYRTEHHHHHH",
    "RECORDED MEASUREMENT": 3.8
  },
  {
    "BINDER": "PCSK9-PKE2 tandem 4472_A04 (designed binder, not shown: The inter-domain linker; In the real molecule the two parts below are one polypeptide joined by this linker) PCSK9 domain: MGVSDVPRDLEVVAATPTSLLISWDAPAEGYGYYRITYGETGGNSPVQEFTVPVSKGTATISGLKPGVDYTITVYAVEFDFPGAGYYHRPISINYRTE PKE2 domain: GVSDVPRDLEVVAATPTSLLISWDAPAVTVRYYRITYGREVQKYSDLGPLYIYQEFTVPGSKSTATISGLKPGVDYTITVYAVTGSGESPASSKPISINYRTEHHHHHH",
    "RECORDED MEASUREMENT": 16.7
  },
  {
    "BINDER": "PCSK9-PKE2 tandem 4472_B09 (designed binder, not shown: small tags and cut ends, The two parts are one polypeptide in the real molecule, joined by the undisclosed linker K; they are given here as separate chains.) PCSK9 10Fn3: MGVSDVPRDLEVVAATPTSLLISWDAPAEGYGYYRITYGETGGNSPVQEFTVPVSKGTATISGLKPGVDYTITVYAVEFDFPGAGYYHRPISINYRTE PKE2 10Fn3: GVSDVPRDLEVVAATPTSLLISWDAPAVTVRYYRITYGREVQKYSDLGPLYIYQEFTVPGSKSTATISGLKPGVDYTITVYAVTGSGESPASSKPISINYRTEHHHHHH",
    "RECORDED MEASUREMENT": 9.8
  },
  {
    "BINDER": "PCSK9-PKE2 tandem 4472_F08 (designed binder, The real molecule is ONE polypeptide: PCSK9 domain, undisclosed linker F, PKE2 domain. It is given here as two chains because the linker letters are unknown., not shown: The inter-domain linker) PCSK9 domain: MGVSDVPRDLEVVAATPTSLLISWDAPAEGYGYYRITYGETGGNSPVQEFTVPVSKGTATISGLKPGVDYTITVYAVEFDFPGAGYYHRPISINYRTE PKE2 domain: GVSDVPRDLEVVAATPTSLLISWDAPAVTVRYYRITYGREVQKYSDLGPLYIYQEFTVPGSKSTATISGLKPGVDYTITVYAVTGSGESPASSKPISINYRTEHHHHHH",
    "RECORDED MEASUREMENT": 7.3
  },
  {
    "BINDER": "PCSK9-PKE2 tandem 4472_E06 (designed binder, The real molecule is ONE polypeptide: PCSK9 domain, undisclosed linker I (a code letter), PKE2 domain. It is given here as two chains because the linker letters are unknown., also called 4427_E06; not shown: The inter-domain linker) PCSK9 domain: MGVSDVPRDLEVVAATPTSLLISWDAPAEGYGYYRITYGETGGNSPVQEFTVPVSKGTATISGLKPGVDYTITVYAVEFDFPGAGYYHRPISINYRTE PKE2 domain: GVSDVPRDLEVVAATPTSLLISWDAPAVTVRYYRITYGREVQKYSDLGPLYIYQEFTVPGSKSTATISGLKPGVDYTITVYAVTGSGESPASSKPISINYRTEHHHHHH",
    "RECORDED MEASUREMENT": 4.2
  }
]

Now for the binder whose EC50 we want.
[ask] # query: EC50 of entry PCSK9-PKE2 tandem 4472_A11 (designed binder, In the real molecule the two parts given here are one polypeptide, joined by the undisclosed linker B. They are written as two chains only because the linker has no letters., not shown: Linker 'B' joining ...NYRTE of the PCSK9 domain to GVSDV... of the PKE2 domain) PCSK9 domain: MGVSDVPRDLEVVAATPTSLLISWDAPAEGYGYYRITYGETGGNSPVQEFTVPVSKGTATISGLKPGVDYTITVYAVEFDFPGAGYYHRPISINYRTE PKE2 domain: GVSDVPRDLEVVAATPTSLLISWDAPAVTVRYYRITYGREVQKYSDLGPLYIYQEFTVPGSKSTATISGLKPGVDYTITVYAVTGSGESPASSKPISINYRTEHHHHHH
[reply] 3.9
